SYSTEM_UNDER_TEST: T1, IL-11 protein (UniProt P20809 22-199, limits assumed)
T1 construct: also called IL-11 antigen
T1 sequence (looked up): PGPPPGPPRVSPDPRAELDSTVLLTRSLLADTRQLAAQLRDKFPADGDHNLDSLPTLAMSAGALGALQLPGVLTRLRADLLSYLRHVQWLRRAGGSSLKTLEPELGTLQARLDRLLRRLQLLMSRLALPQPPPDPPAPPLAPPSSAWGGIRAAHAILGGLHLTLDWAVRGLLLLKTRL
ASSAY_NOTES: SPR (Biacore), antibody captured, 400 nM IL-11 as analyte
Each record here notes measured kon.
Unit M⁻¹ s⁻¹ implied. Number only.

Example entries and their recorded answers appear below.
BINDER	kon / M⁻¹ s⁻¹
VH4 + VL4-scFv (scFv, V domains shown, Humanized 5-20E11-5F2; CHO supernatant; Called scFv, but heavy and light vectors were co-transfected) VH: QVQLVQSGAEVKKPGASVKVSCKASDYTFTNYWLGWVRQAPGHGLEWIGHIYPGGGYTNYNEKFKGRATLTADTSTSTVYMELSSLRSEDTAVYFCARVRSGNDALDFWGQGTLVTVSS VL: EIVLTQSPATLSLSPGERATLSCRASESVDEYGISFMNWFQQKPGQAPRLLIYSASNQGSGIPARFSGSGSGTDFTLTISSLEPEDFAMYFCQQSKEVPWTFGGGTKLEIK	47900
VH1 + VL1-scFv (scFv, V domains shown, Humanized 5-20E11-5F2; CHO supernatant; Called scFv, but heavy and light vectors were co-transfected) VH: QVQLVQSGAEVKKPGASVKVSCKASDYTFTNYWLGWVRQAPGQGLEWMGHIYPGGGYTNYNEKFKGRVTMTRDTSTSTVYMELSSLRSEDTAVYYCARVRSGNDALDFWGQGTLVTVSS VL: EIVLTQSPATLSLSPGERATLSCRASESVDEYGISFMNWYQQKPGQAPRLLIYSASNQGSGIPARFSGSGSGTDFTLTISSLEPEDFAVYYCQQSKEVPWTFGGGTKLEIK	35100
VH4 + VL2-scFv (scFv, V domains shown, Humanized 5-20E11-5F2; CHO supernatant; Called scFv, but heavy and light vectors were co-transfected) VH: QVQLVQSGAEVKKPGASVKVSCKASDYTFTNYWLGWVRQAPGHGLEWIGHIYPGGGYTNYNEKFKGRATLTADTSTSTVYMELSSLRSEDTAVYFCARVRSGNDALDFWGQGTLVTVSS VL: EIVLTQSPATLSLSPGERATLSCRASESVDEYGISFMNWYQQKPGQAPRLLIYSASNQGSGIPARFSGSGSGTDFTLTISSLEPEDFAVYFCQQSKEVPWTFGGGTKLEIK	55200
VH1 + VL2-scFv (scFv, V domains shown, Humanized 5-20E11-5F2; CHO supernatant; Called scFv, but heavy and light vectors were co-transfected) VH: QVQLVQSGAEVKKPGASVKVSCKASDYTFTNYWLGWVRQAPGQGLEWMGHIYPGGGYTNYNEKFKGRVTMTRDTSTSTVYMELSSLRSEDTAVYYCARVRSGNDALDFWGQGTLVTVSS VL: EIVLTQSPATLSLSPGERATLSCRASESVDEYGISFMNWYQQKPGQAPRLLIYSASNQGSGIPARFSGSGSGTDFTLTISSLEPEDFAVYFCQQSKEVPWTFGGGTKLEIK	41300
VH1 + VL4-scFv (scFv, V domains shown, Humanized 5-20E11-5F2; CHO supernatant; Called scFv, but heavy and light vectors were co-transfected) VH: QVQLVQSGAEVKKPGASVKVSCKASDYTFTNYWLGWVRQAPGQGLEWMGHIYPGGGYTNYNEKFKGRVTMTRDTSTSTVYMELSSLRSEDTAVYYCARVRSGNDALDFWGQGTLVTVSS VL: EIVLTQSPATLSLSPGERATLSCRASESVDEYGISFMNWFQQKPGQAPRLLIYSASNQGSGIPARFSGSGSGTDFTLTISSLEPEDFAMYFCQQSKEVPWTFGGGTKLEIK	33100
VH3 + VL1-scFv (scFv, V domains shown, Humanized 5-20E11-5F2; CHO supernatant; Called scFv, but heavy and light vectors were co-transfected) VH: QVQLVQSGAEVKKPGASVKVSCKASDYTFTNYWLGWVRQAPGQGLEWIGHIYPGGGYTNYNEKFKGRATLTADTSTSTVYMELSSLRSEDTAVYFCARVRSGNDALDFWGQGTLVTVSS VL: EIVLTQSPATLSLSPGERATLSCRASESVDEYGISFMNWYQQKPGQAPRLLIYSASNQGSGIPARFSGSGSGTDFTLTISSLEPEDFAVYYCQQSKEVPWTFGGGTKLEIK	44500
VH1 + VL3-scFv (scFv, V domains shown, Humanized 5-20E11-5F2; CHO supernatant; Called scFv, but heavy and light vectors were co-transfected) VH: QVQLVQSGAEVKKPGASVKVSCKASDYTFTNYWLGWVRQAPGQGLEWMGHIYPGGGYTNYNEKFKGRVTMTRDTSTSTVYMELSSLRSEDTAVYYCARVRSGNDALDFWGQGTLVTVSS VL: EIVLTQSPATLSLSPGERATLSCRASESVDEYGISFMNWFQQKPGQAPRLLIYSASNQGSGIPARFSGSGSGTDFTLTISSLEPEDFAVYFCQQSKEVPWTFGGGTKLEIK	35500
VH2 + VL1-scFv (scFv, V domains shown, Humanized 5-20E11-5F2; CHO supernatant; Called scFv, but heavy and light vectors were co-transfected) VH: QVQLVQSGAEVKKPGASVKVSCKASDYTFTNYWLGWVRQAPGQGLEWIGHIYPGGGYTNYNEKFKGRVTMTADTSTSTVYMELSSLRSEDTAVYFCARVRSGNDALDFWGQGTLVTVSS VL: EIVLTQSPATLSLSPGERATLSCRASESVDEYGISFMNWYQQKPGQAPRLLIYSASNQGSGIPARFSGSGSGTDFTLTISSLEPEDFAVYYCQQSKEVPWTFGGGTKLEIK	53400
VH2 + VL3-scFv (scFv, V domains shown, Humanized 5-20E11-5F2; CHO supernatant; Called scFv, but heavy and light vectors were co-transfected) VH: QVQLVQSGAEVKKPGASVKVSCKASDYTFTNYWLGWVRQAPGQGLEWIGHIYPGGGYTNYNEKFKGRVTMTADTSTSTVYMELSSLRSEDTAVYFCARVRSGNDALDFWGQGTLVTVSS VL: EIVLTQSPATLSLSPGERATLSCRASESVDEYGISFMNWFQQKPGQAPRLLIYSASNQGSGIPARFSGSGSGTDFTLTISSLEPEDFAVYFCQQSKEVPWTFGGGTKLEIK	45600

Please look at the following binder next.
Request: Name the recorded kon for VH2 + VL4-scFv (scFv, V domains shown, Humanized 5-20E11-5F2; CHO supernatant; Called scFv, but heavy and light vectors were co-transfected) VH: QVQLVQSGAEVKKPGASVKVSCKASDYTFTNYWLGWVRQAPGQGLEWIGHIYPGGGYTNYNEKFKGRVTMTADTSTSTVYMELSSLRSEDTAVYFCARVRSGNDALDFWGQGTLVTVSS VL: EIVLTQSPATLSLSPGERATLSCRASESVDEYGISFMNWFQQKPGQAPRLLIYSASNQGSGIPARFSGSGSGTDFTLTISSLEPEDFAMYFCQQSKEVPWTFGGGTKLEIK .
Result: 48800
